Here, each record is paired with measured IC50 data.
ASSAY TARGET: Gag-Pol polyprotein [600-1027,R876K]/[600-1155] (Human immunodeficiency virus 1, UniProt P03366, R876K)
Construct: 600-1027; 600-1155
PROTOCOL DETAILS: HIV-1 RT Assay
ASSAY CONTEXT: pH 7.8; 25 °C
Report the figure in nM without appending any unit label.

Q: Quick one: IC50 for `CCN1c2ncccc2C(=O)N(C)c2cccnc21` ?
A: 130

Q: Quick one: IC50 for `CN1C(=O)c2cccnc2N(C2CC2)c2nc(Cl)ccc21` ?
A: 90

###

ASSAY TARGET: Gag-Pol polyprotein [600-1027,Y780C]/[600-1155,Y780C] (Human immunodeficiency virus 1, UniProt P03366, Y780C)
Construct: 600-1027; 600-1155
PROTOCOL DETAILS: HIV-1 RT Assay
pIC50: −log10 of the molar value.
MEASURED PROPERTY: pIC50

Please review the entries below; each comes with its answer.
CCN1c2ncccc2C(=O)N(C)c2ccc(-c3cncs3)nc21 6.62
CCN1c2ncccc2C(=O)N(C)c2ccc(-c3ncco3)nc21 6.25
CCN1c2ncccc2C(=O)Nc2c(C)cc(SC)nc21 < 6.00
CCN1c2ncccc2C(=O)Nc2c(C)cc(N3CCSCC3)nc21 < 6.00
CCN1c2ncccc2C(=O)Nc2c(C)cc(NCCCO)nc21 < 6.00

Q: Quick one: pIC50 for `CCC=Nc1ccc2c(n1)N(CC)c1ncccc1C(=O)N2C` ?
A: < 6.00

Q: Quick one: pIC50 for `CCN1c2ncccc2C(=O)Nc2c(C)cc(NCCO)nc21` ?
A: < 6.00

Q: Quick one: pIC50 for `CCN1c2ncccc2C(=O)Nc2c(C)cc(N(C)CCO)nc21` ?
A: < 6.00

###

ASSAY TARGET: Gag-Pol polyprotein [600-1027,R876K]/[600-1155] (Human immunodeficiency virus 1, UniProt P03366, R876K)
Construct: 600-1027; 600-1155
PROTOCOL DETAILS: HIV-1 RT Assay
Here, each record is paired with measured IC50 data.
Report the figure in µM without appending any unit label.

Please review the entries below; each comes with its answer.
CCC=Nc1ccc2c(n1)N(CC)c1ncccc1C(=O)N2C 0.39
CCN1c2ncccc2C(=O)N(C)c2ccc(-c3cnco3)nc21 0.22
CCN1c2ncccc2C(=O)N(C)c2ccc(-c3ccsc3)nc21 0.1
CCN1c2ncccc2C(=O)N(C)c2ccc(-c3ccccn3)nc21 0.18
CCN1c2ncccc2C(=O)N(C)c2ccc(-c3nccs3)nc21 0.38

Q: Quick one: IC50 for `CCN1c2ncccc2C(=O)N(C)c2ccc(-c3cccc(O)c3)nc21` ?
A: 0.1

###

ASSAY TARGET: Gag-Pol polyprotein [600-1027,R876K]/[600-1155] (Human immunodeficiency virus 1, UniProt P03366, R876K)
Construct: 600-1027; 600-1155
PROTOCOL DETAILS: HIV-1 RT Assay
Here, each record is paired with measured IC50 data.
Report the figure in nM without appending any unit label.

Please review the entries below; each comes with its answer.
CCN1c2ncccc2C(=O)N(C)c2ccc(-c3cccc(N)c3)nc21 70
CCN1c2ncccc2C(=O)N(C)c2ccc(-c3ncco3)nc21 110

Q: Quick one: IC50 for `CCN1c2ncccc2C(=O)N(C)c2ccc(-c3cncs3)nc21` ?
A: 100

###

ASSAY TARGET: Gag-Pol polyprotein [600-1027,Y780C]/[600-1155,Y780C] (Human immunodeficiency virus 1, UniProt P03366, Y780C)
Construct: 600-1027; 600-1155
PROTOCOL DETAILS: HIV-1 RT Assay
MEASURED PROPERTY: pIC50
Keep it numeric: pIC50 is minus log10 of the concentration in mol/L.

CCN1c2ncccc2C(=O)N(C)c2ccc(-c3cnco3)nc21 6.09

Field: next molecule
Q: Quick one: pIC50 for `CCN1c2ncccc2C(=O)N(C)c2ccc(-c3nccs3)nc21` ?
A: 5.96

###

ASSAY TARGET: Gag-Pol polyprotein [600-1027,Y780C]/[600-1155,Y780C] (Human immunodeficiency virus 1, UniProt P03366, Y780C)
Construct: 600-1027; 600-1155
PROTOCOL DETAILS: HIV-1 RT Assay
MEASURED PROPERTY: IC50

Please review the entries below; each comes with its answer.
CCN1c2ncccc2C(=O)N(C)c2ccc(=O)[nH]c21 > 1000 nM
CCN1c2ncccc2C(=O)N(C)c2ccc(N3CCCCC3)nc21 > 1000 nM

Q: Quick one: IC50 for `CCN1c2ncccc2C(=O)N(C)c2ccc(N)nc21` ?
A: > 1000 nM

Data provenance is BindingDB's records for doi:10.1021/jm00024a010.
